assay: yeast display, Sf9 membrane polyspecificity reagent, FACS + sequencing; frameworks hold sequencing errors

>  <seq-string>
QVQLVESGGGLVQAGGSLRLSCAASGSTFRYYAMGWYRPAPGKERELVAAINSSGGSTYYADSVKGRFTISRDNAKNTVYLQMNSLKPEDTAVYYCATVYAYTGWLTNPREYSRYDYWGQGTQVTVSS

>  <polyreactivity (PSR sort gate)>
low polyreactivity

$$$$
>  <seq-string>
QVQLVESGGGLVQAGGSLRLSCAASGRIFYRYAMGWYRQAPWKEWELVADISSGTSTNYADSVKGRFTLSRDNAKNTVDLQMNSLKPEDTAVYYCAADEVRSAWRCSSPPDYDHWGQGTQVTVSS

>  <polyreactivity (PSR sort gate)>
low polyreactivity

$$$$

###

assay: yeast display, Sf9 membrane polyspecificity reagent, FACS + sequencing; frameworks hold sequencing errors

>  <seq-string>
QFQLVESGGGLVQAGGSLRLSCAASGLTIYSYSMGWYRQAPGKERELVAAITWRGGSTYYADSVKGRFTISRDHAKNTDYLQMNSVKPEDTALYYCAADPGPYGYYYWGQGNQVTVSS

>  <polyreactivity (PSR sort gate)>
low polyreactivity

$$$$
>  <seq-string>
QVQLVESGGGLVQAGGSLRLSCAASGRIFVTNTMGWYRQAPGKERELVAAIDNSAGSTYYADSVKGRFTISRDNAKNTVYLQMNSLKPEDTAVYYCAADYPPYYGYGYWGQGTQVTVSS

>  <polyreactivity (PSR sort gate)>
low polyreactivity

$$$$
>  <seq-string>
QDQLVESGGGLVQAGGSLRLSCAASGFTFRRYAMGWYRQAPGKERELVAAISYTGGITYYADSVKGRFTISRDNAKNTVYLQMNSLKPEDTAVYYCAAESVWTWDYTTAGMDYWGQGTQVTVSS

>  <polyreactivity (PSR sort gate)>
high polyreactivity

$$$$
>  <seq-string>
QVHHVESGGGLVQAGGSLRLSCAASGFIFVHNAMGCYSQAPGKERELVAAIRSRGGSTYYADSVKGRFTISRDNAKNTVYLQMNRLKPEDTAGYYCAADGAVVSSSRKFGYWGQGTQVTVSS

>  <polyreactivity (PSR sort gate)>
low polyreactivity

$$$$
>  <seq-string>
QVQLVESGGGLVQAGGSLRLSCAASGSIFTYYAMGWYRQAPGKERELVADISKRGGSTYYADSVKGRFTISRDNAKNTVYLQMNSLKPEYTAVYYCATRARYTWRAFEYWGQGTQVTVSS

>  <polyreactivity (PSR sort gate)>
low polyreactivity

$$$$
>  <seq-string>
QVQLVESGGGLVQAGGSLRLSCAASGYTVYANAMGWYRQAPGKEREFVASITWSGGSTYYADSVKGRFSISRDNAKNPVYLQMNSLKPEDTAVYYCAAESWFKYDYWGQGTQVTVSS

>  <polyreactivity (PSR sort gate)>
low polyreactivity

$$$$
>  <seq-string>
QVQLVESGGGLVQAGGSLRLSCAASGSISTVYAMGWSRQAPGKERELVAAISWSGGSTYYADSVKGRFTISRDNAKNTDYLQMNSLKPEDTAFYYCAVRGLLYHSYYSVRYDYWGQGTQVTVSS

>  <polyreactivity (PSR sort gate)>
high polyreactivity

$$$$
>  <seq-string>
QVQLVESGGGLVQAGGSLRLSCPASGSIFSAYAMGWYRQAPGNEREFVAAITRRGGNTYYADSVKGRFTISRDNAKNTVYLQMNSLKPEDTAVYYCAAIRRQKGLWDYYYWGQGTQVTVSS

>  <polyreactivity (PSR sort gate)>
low polyreactivity

$$$$
>  <seq-string>
QDQLVESGGGLVQAGGSLRLSCAASGITFPNYAMGWYGQAPGKERELVAAISRGDSTYYADSVKGRFTISRDNAKNTVYLQMNSLKPEDTAVYYCAARYGRYWSSSGSWTPYGYWGQGTQVTVSS

>  <polyreactivity (PSR sort gate)>
high polyreactivity

$$$$
>  <seq-string>
QVQLVESGGGLVQAGGSLRLSCAASGRIFSTNAMGWYRQAPWKERELVASISKSGGSTYYADSVKGRFTISRDNAKNTVYLQMNSLKPEDTAVYYCAASSYSTSYIRGDYWGQGTQVTVSS

>  <polyreactivity (PSR sort gate)>
low polyreactivity

$$$$
>  <seq-string>
QVQLVESGGGLVQAGGSLRLSCAASGRIFGGNAMGWYRQAPGKERELVAAISQRGGSTSYADSVKGRFTISRDNAKNTVYLQMNSLKPEDTAVYYCAATWGYLRGSTKFYYWGQGTQVTVSS

>  <polyreactivity (PSR sort gate)>
high polyreactivity

$$$$
>  <seq-string>
QVQLVESGGGLVEAGGSLRLSCAASGSILYYNAMGWYRQAPGKERELVAAISTRGGSTYYADSVKGRFTSSRDNAKKTVYLQMNSLKPEDTAVYYCAADHNVIWGYYYWGQGTQVTVSS

>  <polyreactivity (PSR sort gate)>
high polyreactivity

$$$$
>  <seq-string>
QVQLVESGRGLVQAGGSLRLSCAPSGIIFTSYAMGWYRQAPGKESEFVAAITRSGSRTYYADSVKGRFTISRDNAKNTVYLQMNRLKPEDTAVYYCAARTFHDSSDSYAGGYWGQGTQVTVSS

>  <polyreactivity (PSR sort gate)>
low polyreactivity

$$$$
>  <seq-string>
QVQLVESGGGLVQAGGSLRLSCAASGSTFYLNAMGWYRQAPGKERELVASITWSGGRTYYADSVKGRFTISRDNAKNTVYLQMNSLKPEDTAVYYCAADPVWGRYIKYDYWGQGTQVTVSS

>  <polyreactivity (PSR sort gate)>
high polyreactivity

$$$$
>  <seq-string>
QVQLQESGGGLVQAGGSQRLSCAASGYIFYFQYMGWYRQAPGKEREFVAAISDGANTNYADSVKGRFTISRDNAKNTEYLQMNSLKPEDTAVYYCAAGLSTGTIAYGYNYWRQGTQVTVSS

>  <polyreactivity (PSR sort gate)>
low polyreactivity

$$$$
>  <seq-string>
QVQLVESGGGLVQAGGSLRLSCAASGSIFNYYTMGWYRQAPGKERELVAAISWSGGSTYYADSVKGRFTISRDNAKNTVYLQMNSLKPEDTAVYYCAAVVRYSQAGYYYWGQGTQVTVSS

>  <polyreactivity (PSR sort gate)>
high polyreactivity

$$$$
>  <seq-string>
QVQLVESGGGLVQAGGSLRLSCAASGRTFVVNAMGWYRQAPGKERELVAAIYADSVKGRFTISRDNAKNTVYLQMNSLKPEDTAVYYCAASGGTWVYYRPEYDYWGQGTQVTVSS

>  <polyreactivity (PSR sort gate)>
low polyreactivity

$$$$
>  <seq-string>
QVQLVESGGGLVQAGGSLRLSCAASGSIFVKYAMGWYRQAPGKERELVAAITTGVGSTYYADSVKGRFTISRDNAKNTVYLQMNSLKPEDTAVYYCAAETIDYWYILEYDYWGQGTQVTVSS

>  <polyreactivity (PSR sort gate)>
low polyreactivity

$$$$
>  <seq-string>
QVQLVESGGGLVQAGGSLRLSCAASGRIFGGYTMGWYRQAPGKERELVASINSGGSTAYADSVKGRFTISRDNAKNTVYLQMNSLKPEDTAVYYCAKRYAQTYSVSRYYYWGQGTQVTVSS

>  <polyreactivity (PSR sort gate)>
high polyreactivity

$$$$
>  <seq-string>
QVQLVESGGGLVQAGGSLRLSCAASGSISYRYVMGWYRQAPGKERELVAAITTSGGSTYYADSVKGRFTISRDNAKNTVYLQKNSLKPEDTAVYYCAKVYQADQLRSHYDYWGQGTQVTVSS

>  <polyreactivity (PSR sort gate)>
high polyreactivity

$$$$
>  <seq-string>
QVQLVESGGGLVQAGGSLRLSCAASGSIFWTNAMGWYRQAPGKERELVARITYSGGSTYSADSVKGRFTISRDNAKNTVYLQMNSLKPEDTAVYYCNARTHGWPYSRYYYWGQGTQVTVSS

>  <polyreactivity (PSR sort gate)>
high polyreactivity

$$$$

###

assay: yeast display, Sf9 membrane polyspecificity reagent, FACS + sequencing; frameworks hold sequencing errors

>  <seq-string>
QVQLVESGGGLVQAGGSLRLSCAASGRIFDFNAMGWYRQAPGKEREFVAAIRTSGGDSTYYADSVKGRFTISRDNAKNTVYLQMNSLKPEDTAVYYCAKTVWWYYRYPFDYWGQGTQVTVSS

>  <polyreactivity (PSR sort gate)>
low polyreactivity

$$$$
>  <seq-string>
QVQLVESGGGLVQAGGSLRLSCAASGSTSRGYAMGWYRPAPGKERELVASITLSGGNTYYADSVKGRFTISRDSAKNTVYFQMYSLKPVDTAVYYCAADDRGSSYGHFTVEYGNWGQGTQVTVSS

>  <polyreactivity (PSR sort gate)>
low polyreactivity

$$$$
>  <seq-string>
QVQLVESGGGLVQAGGSLRLSCSASGFIFWYYAMGWYRQAPGKERELVAAISSGGSTNYADSVKGRFAISRDNAKNTVYLQLNSLIPVDTAVYYCATSSIWGSARVRWVTYYYWGQGTQVTVSS

>  <polyreactivity (PSR sort gate)>
low polyreactivity

$$$$
>  <seq-string>
QVQLVESGGGLFQAGGSLRLSCAASGRTFGYYAMGWYRQAPGKERELVAAITGDATTYYADSVKGRFTISRDNAKNTVYLQMNSLQPEDTAVYYCDALFTPALSEYDYWGQGTQVTVSS

>  <polyreactivity (PSR sort gate)>
high polyreactivity

$$$$
>  <seq-string>
QVQLVESGGGLVQAGGSLRLSCAASGSIFGLYVMGWYRQAPGKERELVAAITGRGGSTYYADSVKGRFTISRDNAKNTVYLQMNSLKPEDTAVYYCAALRYTFAGRFDYWGQGTQVTVSS

>  <polyreactivity (PSR sort gate)>
high polyreactivity

$$$$
